B1: Homeobox protein cut-like 1, residues 548 to 629; numbered along this chain, P39880 (parent)
chain: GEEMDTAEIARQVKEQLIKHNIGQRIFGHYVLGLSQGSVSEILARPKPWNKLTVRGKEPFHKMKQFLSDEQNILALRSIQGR

# Variants of: B1
# ASSAY_NOTES: abundance fitness (aPCA) (normalised: wild type 0, dead -1); higher = more abundant; growth selection in yeast, the domain comes from the species named
# EXPERIMENTAL_CONDITIONS: Homo sapiens
Listed next: entries and their corresponding abundance fitness.

The examples below pair each entry with its known result.
E2K -0.116
K64A -0.028
W49T -0.509

stdin: Using the record for "L32N" , state its measured abundance fitness.
stdout: -0.768

stdin: Using the record for "N50S" , state its measured abundance fitness.
stdout: 0.073

stdin: Using the record for "E8R" , state its measured abundance fitness.
stdout: -0.17

stdin: Using the record for "E8W" , state its measured abundance fitness.
stdout: -0.231

stdin: Using the record for "T6I" , state its measured abundance fitness.
stdout: -1.14

stdin: Using the record for "N50F" , state its measured abundance fitness.
stdout: -0.265

stdin: Using the record for "I79R" , state its measured abundance fitness.
stdout: -0.065

stdin: Using the record for "E15D" , state its measured abundance fitness.
stdout: -0.211

stdin: Using the record for "G37W" , state its measured abundance fitness.
stdout: -0.057

stdin: Using the record for "S68I" , state its measured abundance fitness.
stdout: -0.198
